meta.source: ChEMBL document CHEMBL4020810

SYSTEM NAME: Tyrosine-protein kinase JAK1 (Homo sapiens, UniProt P23458)
Sequence (P23458 whole entry): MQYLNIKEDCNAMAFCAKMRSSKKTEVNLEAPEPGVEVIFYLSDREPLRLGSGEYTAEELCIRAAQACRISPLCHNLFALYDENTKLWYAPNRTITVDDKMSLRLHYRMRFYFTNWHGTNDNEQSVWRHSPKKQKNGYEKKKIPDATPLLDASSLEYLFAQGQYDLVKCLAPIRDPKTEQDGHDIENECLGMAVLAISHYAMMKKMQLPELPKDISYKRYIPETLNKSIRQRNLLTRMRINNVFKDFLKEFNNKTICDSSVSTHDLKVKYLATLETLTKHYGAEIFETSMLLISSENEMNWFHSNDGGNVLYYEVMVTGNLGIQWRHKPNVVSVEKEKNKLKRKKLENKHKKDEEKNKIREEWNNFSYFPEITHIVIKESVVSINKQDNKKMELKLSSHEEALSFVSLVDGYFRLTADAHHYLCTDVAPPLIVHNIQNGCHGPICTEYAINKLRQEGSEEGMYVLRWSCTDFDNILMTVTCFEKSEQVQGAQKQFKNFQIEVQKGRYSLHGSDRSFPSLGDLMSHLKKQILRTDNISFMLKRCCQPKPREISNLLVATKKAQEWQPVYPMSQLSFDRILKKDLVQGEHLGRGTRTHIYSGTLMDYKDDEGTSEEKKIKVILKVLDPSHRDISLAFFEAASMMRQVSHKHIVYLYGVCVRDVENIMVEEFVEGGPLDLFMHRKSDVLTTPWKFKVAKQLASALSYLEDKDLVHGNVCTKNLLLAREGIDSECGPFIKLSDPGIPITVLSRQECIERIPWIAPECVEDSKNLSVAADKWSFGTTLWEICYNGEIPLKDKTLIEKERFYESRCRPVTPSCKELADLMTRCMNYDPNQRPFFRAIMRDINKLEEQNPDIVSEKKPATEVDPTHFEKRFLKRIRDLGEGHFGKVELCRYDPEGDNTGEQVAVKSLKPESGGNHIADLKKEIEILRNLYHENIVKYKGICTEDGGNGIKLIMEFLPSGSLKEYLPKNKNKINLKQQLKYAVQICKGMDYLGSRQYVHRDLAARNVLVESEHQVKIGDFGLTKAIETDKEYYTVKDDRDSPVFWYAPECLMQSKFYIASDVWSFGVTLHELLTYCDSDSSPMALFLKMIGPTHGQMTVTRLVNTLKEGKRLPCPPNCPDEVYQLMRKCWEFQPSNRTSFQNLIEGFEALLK
EXPERIMENT: Inhibition of JAK1 in human NCI-H1975 cells assessed as reduction in STAT3 phosphorylation incubated for 2 hrs
Format: cell-based
Consider the cut-off 0.08 µM. If the recorded IC50 is strictly smaller, the label is Y; if not, the label is N.

Below, 2 compounds whose answers are already recorded.
>>> class_assignment("COC[C@H](C(=O)Nc1cccc2c(-c3nc(Nc4cn(C)nc4C)ncc3F)c[nH]c12)N1CCN(C)CC1")
"Y"
>>> class_assignment("CCOc1nn(C)cc1Nc1ncc(F)c(-c2c[nH]c3c(NC(=O)[C@H](C)N4CCN(C)C[C@@H]4C)cccc23)n1")
"N"

Q: Does the reported IC50 of the following compound sit strictly below 0.08 µM? `COc1nn(C)cc1Nc1ncc(Cl)c(-c2c[nH]c3c(NC(=O)[C@@H](C)N4CCN(C)CC4)cccc23)n1`
A: Y

Q: Please do the same for `CC[C@H](C(=O)Nc1cccc2c(-c3nc(Nc4cn(C)nc4C)ncc3F)c[nH]c12)N1CCN(C)CC1` as well.
A: Y

Q: Also `CCOc1nn(C)cc1Nc1ncc(C)c(-c2c[nH]c3c(NC(=O)[C@@H](CC)N4CCN(C)CC4)cccc23)n1` ?
A: N

Q: Would you kindly repeat that for `COc1nn(C)cc1Nc1nccc(-c2c[nH]c3c(NC(=O)[C@@H](C)N4CCN(C)C[C@@H]4C)cccc23)n1` ?
A: N

* * *

Some molecules, each annotated with its measured pIC50.
SYSTEM NAME: UniProt:P23458
EXPERIMENT: Inhibition of N-terminal GST fused human recombinant JAK1 (866 to 1154 amino acids) expressed in insect cells using ATP and peptide substrate (FITC-C6-KKHTDDGYMPMSPGVA-NH2
pIC50: −log10 of the molar value.

Please review the following examples before continuing.
>>> value_reported("CC[C@H](C(=O)Nc1cccc2c(-c3nc(Nc4cn(C)nc4C)ncc3F)c[nH]c12)N1CCN(C)CC1")
"> 8.40"
>>> value_reported("CCOc1nn(C)cc1Nc1ncc(C)c(-c2c[nH]c3c(NC(=O)[C@@H](CC)N4CCN(C)CC4)cccc23)n1")
"> 8.22"

Q: Entry `COC[C@H](C(=O)Nc1cccc2c(-c3nc(Nc4cn(C)nc4C)ncc3F)c[nH]c12)N1CCN(C)CC1` has what pIC50?
A: > 8.52
